Below, each of the compounds is paired with its reported growth value.
# System: NCI-H460 lung
# TEST: NCI-60 one-dose screen, 48 h (100 = growth as untreated, 0 = no growth, -100 = all killed)
# EXPERIMENTAL_CONTEXT: 10 µM unless noted
About 83,000 compounds went through this panel and 20% of them were active in at least one assay; those are over-represented in the sample as a whole. Activity calls are given as the source filed them. The calls were made as follows: active = growth percent below 10; inactive = the rest.

{"columns": ["COMPOUND", "growth"],
 "data": [
  ["COc1cccc(-c2nc(-c3ccc(NC(=O)OC(C)C)cc3)[nH]c2-c2ccnc(Br)c2)c1", "16.7% (inactive)"],
  ["Cc1ccc(-c2nc(N3CCN(C(=O)Nc4ccc(Cl)c(C(F)(F)F)c4)CC3)c3ccccc3n2)cc1", "81.1% (inactive)"]
]}

Q. Retrieve growth measured for CN(C(=O)NCc1cccc(F)c1Cl)[C@H](COC(=O)Nc1cc2ccccc2cn1)CC(O)CO (stereo not given in full) and print it.
A. 100% (inactive)

Q. Retrieve growth measured for NS(=O)(=O)c1ccc(-n2nc(C(=O)N/N=C\c3ccc(F)cc3)cc2-c2ccc(Br)cc2)cc1 and print it.
A. 84.1% (inactive)

====

# Tested on: UACC-62 melanoma
# TEST: NCI-60 one-dose screen, 48 h
# EXPERIMENTAL_CONTEXT: 10 µM unless noted
About 83,000 compounds went through this panel and 20% of them were active in at least one assay; those are over-represented in the sample as a whole. Calls of active or inactive are those of the source. Rule for the calls: active = growth percent below 10; inactive = the rest.
Use one of these outcomes when replying: active, inactive

Consider the following illustrative entries.
{"columns": ["COMPOUND", "ASSIGNED_CLASS"],
 "data": [
  ["CCOC(=O)C1=C(N)Oc2c(sc3c(C)cccc23)C1c1ccc(OC)cc1 (stereo not given)", "inactive"],
  ["N#Cc1c(-c2ccc(Cl)cc2)nc(NCCO)[nH]c1=O", "inactive"]
]}

Q. Please state the recorded outcome for this compound: O=C(N=c1oc2ccccc2cc1-c1cc2ccccc2[nH]1)Nc1ccc(Cl)cc1
A. inactive

Q. Please state the recorded outcome for this compound: COc1cc(C(=O)N/N=C/c2cc3cc(OCc4ccccc4)ccc3nc2OC)cc(OC)c1OC
A. inactive

Q. Please state the recorded outcome for this compound: O=C(O)CCC/C=C\C[C@H]1C=CC(=O)/C1=C/C[C@@H](O)CCc1cccc(C(F)(F)F)c1
A. active

====

Below, each of the compounds is paired with its reported growth value.
# Test system: HCT-116 colon
# TEST: NCI-60 one-dose screen, 48 h (100 = growth as untreated, 0 = no growth, -100 = all killed)
# EXPERIMENTAL_CONTEXT: 10 µM unless noted
The panel holds about 83,000 compounds, 20% with a hit somewhere; the sample as a whole holds those more often.
Respond with the bare value in %.

Worked cases, growth given:
{"columns": ["COMPOUND", "growth, %"],
 "data": [
  ["COc1cc(Nc2nc(NCCN)nc3cc[nH]c(=O)c23)cc(OC)c1", 46.6],
  ["COc1cc(-c2nc3sccn3c2-c2ccnc(NCCCNS(=O)(=O)c3ccc(F)cc3)n2)ccc1F", 58.1],
  ["CCOC(=O)CCN(C(=O)Nc1ccccc1)C1CCCCC1", 102],
  ["COc1ccc(CN2c3ccccc3CCc3ccccc32)cc1F", 2.32],
  ["COc1ccc(-c2cc(-c3cc(OC)c(OC)c(OC)c3)nc(N3CCOCC3)c2C#N)cc1", 72.1]
]}

Q. Retrieve growth measured for COC(=O)C(Cc1ccccc1)NC(=O)NC(=O)NC(=O)CI (stereo unspecified) and print it.
A. 94.5

Q. Retrieve growth measured for COc1ccc(/C=C/c2c(C(=O)/C=C/c3ccc(C(F)(F)F)cc3)c(C)nc3ccccc23)cc1 and print it.
A. -67.8

Q. Retrieve growth measured for N#C/C(=C\c1cccc2cnccc12)n1nnc2cccc(F)c21 and print it.
A. 10.4

Q. Retrieve growth measured for COc1ccc(-n2c(N)c(-c3nc4ccccc4[nH]3)cc(C#N)c2=O)cc1 and print it.
A. 88.2

Q. Retrieve growth measured for COc1ccc(C2CC(c3ccc(Nc4ccnc5cc(Cl)ccc45)cc3)=NN2C=O)cc1 (stereo unspecified) and print it.
A. 55.7

Q. Retrieve growth measured for O=C(N/N=C/[C@H](O)[C@H](O)[C@H](O)CO)c1ccc(NC(=O)c2cccnc2)cc1 and print it.
A. 105

Q. Retrieve growth measured for O=C(N/N=C/[C@@H](O)[C@H](O)[C@H](O)CO)c1ccc(NC(=O)c2cccnc2)cc1 and print it.
A. 103

Q. Retrieve growth measured for COc1ccc2sc3c(NCCO)nc4ccccc4c3c(=O)c2c1 and print it.
A. 92.7

Q. Retrieve growth measured for O=C(Nc1ccc(Cl)cc1F)c1ccccc1O and print it.
A. 34.6

Q. Retrieve growth measured for CC(C)C(=O)Nc1ccc(-c2nc(-c3cccc(OCCN4CCOCC4)c3)c(-c3ccnc(Br)c3)[nH]2)cc1 and print it.
A. 44.5

The origin of these recorded values is PubChem BioAssay (NCI).
